I'd appreciate it if you could supply ratio over background values for the items below.
Biological target: T1, soluble IGF-1R (recombinant human IGF-1R extracellular domain, R&D Systems Cat. # 391-GR/CF) (human, UniProt P08069 31-935)
T1 construct: extracellular domain; Bought protein; coated on plates (phage ELISA, TRF) or Eu-labelled (TR-FRET); also called sIGF-1R; rhIGF-1R
Experiment: phage ELISA
// return numeric value only (unit: ratio, not printed)

# input binder: SACQFDCHENFYDWFARQVSGGAAYG (on phage) [H2CA-4-E8-IGFR] ; wanted: its ratio over background
9.2

# input binder: FFYRCLSRLLGGQLGSRLGLSCIGD (on phage) [20C-3-E4-IGFR] ; wanted: its ratio over background
7.7

# input binder: LSVALSFYDALGQLVAGEGRW (on phage) [20E2A-3-A12-IGFR] ; wanted: its ratio over background
4.3

# input binder: SRAKVEAEMPDSGDPFYHKLSELLASG (on phage) [B6Hα-1-A3-IR] ; wanted: its ratio over background
2.6

# input binder: GFREGSFYDWFQAQVT (on phage) [E4Dα-2-D11-IR] ; wanted: its ratio over background
11.1
